system: Enterococcus faecalis; assay: Antibacterial activity against vancomycin-resistant Enterococcus faecalis ATCC 700802 after 24 hrs by broth micro-dilution method; assay type: functional; conditions: ATCC 700802, 24 h
endpoint name: MIC

Documented MIC of CCCCCCCCCCCC(=O)N[C@@H](CCCCN)CN(CC(N)=O)C(=O)CCCN : > 50 µg/mL

Documented MIC of CCCCCCCCCCCCCCCC(=O)N[C@@H](C)CN(CC(=O)N[C@@H](C)CN(CC(=O)N[C@@H](Cc1ccccc1)CN(CC(=O)N[C@@H](Cc1ccccc1)CN(CC(=O)N[C@@H](Cc1ccccc1)CN(CC(N)=O)C(=O)CC(=O)O)C(=O)CC(=O)O)C(=O)CC(=O)O)C(C)=O)C(C)=O : > 100 µg/mL

Documented MIC of CCCCCCCCCCCCCCCC(=O)N[C@@H](CCCCN)CN(CC(=O)N[C@@H](CCCCN)CN(CC(=O)N[C@@H](CCCCN)CN(CC(N)=O)C(=O)CCCN)C(=O)CCCN)C(=O)CCCN : 10 µg/mL

Documented MIC of CCCCCCCC/C=C\CCCCCCCC(=O)N[C@@H](C)CN(CC(=O)N[C@@H](C)CN(CC(=O)N[C@@H](CC(C)C)CN(CC(=O)N[C@@H](CC(C)C)CN(CC(=O)N[C@@H](CC(C)C)CN(CC(N)=O)C(=O)CCCN)C(=O)CCCN)C(=O)CCCN)C(C)=O)C(C)=O : 4 µg/mL

Documented MIC of CCCCCCCCCCCCCCCC(=O)N[C@@H](CCCCN)CN(CC(N)=O)C(=O)CCCN : 2.5 µg/mL
